Where these numbers come from: the supplement of paper PMC6555819

Test system: LXRa homodimer (NR concentration 270 nM)
measurement_protocol: PBM binding z-score (relative to random genomic background probes); higher = stronger binding; sequences stand for … in GC…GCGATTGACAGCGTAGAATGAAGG
Entries and their measured PBM binding z-score follow.

{"sequence_record": "CCTACCGGGCCATCAGGTCATTGATATCAACGTT", "PBM binding z-score": 1.91}
{"sequence_record": "GCCACTGGGGCATCAGCAGGTTACCATAACTTAA", "PBM binding z-score": -0.158}
{"sequence_record": "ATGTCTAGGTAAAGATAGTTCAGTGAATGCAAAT", "PBM binding z-score": 0.552}
{"sequence_record": "ATACCAAGGTGGTCGTGAGGTCGTTGATACTAAC", "PBM binding z-score": 0.382}
{"sequence_record": "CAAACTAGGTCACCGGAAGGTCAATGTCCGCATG", "PBM binding z-score": 3.83}
{"sequence_record": "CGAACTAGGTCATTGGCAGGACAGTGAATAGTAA", "PBM binding z-score": 0.219}
{"sequence_record": "TCGAGTAGCTTACCAATGGGGCATTCAGCTTTCT", "PBM binding z-score": -0.884}
{"sequence_record": "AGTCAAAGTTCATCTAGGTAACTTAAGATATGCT", "PBM binding z-score": 5.17}
{"sequence_record": "ACAGACAGGTGAGTGAAGGTAACTCGGCTGGACG", "PBM binding z-score": -0.627}
{"sequence_record": "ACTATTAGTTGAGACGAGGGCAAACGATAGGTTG", "PBM binding z-score": 0.35}
{"sequence_record": "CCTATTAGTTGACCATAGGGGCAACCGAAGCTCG", "PBM binding z-score": 0.304}
{"sequence_record": "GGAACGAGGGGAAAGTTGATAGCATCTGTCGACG", "PBM binding z-score": -0.204}
{"sequence_record": "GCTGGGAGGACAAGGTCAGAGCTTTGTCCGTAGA", "PBM binding z-score": -0.27}
{"sequence_record": "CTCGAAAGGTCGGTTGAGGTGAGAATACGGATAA", "PBM binding z-score": -0.255}
{"sequence_record": "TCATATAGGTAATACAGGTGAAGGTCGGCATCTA", "PBM binding z-score": 0.87}
{"sequence_record": "ATCTCTAGGTAAAGATAGTTCAGGGAATGCAAAT", "PBM binding z-score": 0.565}
{"sequence_record": "CCAGACGGGTGAGAAGGTAACTCAGCCTCGATTA", "PBM binding z-score": -0.527}
{"sequence_record": "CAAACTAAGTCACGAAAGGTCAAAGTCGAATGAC", "PBM binding z-score": 6.01}
{"sequence_record": "AGAATGAGGTTATTAAGATCAGGGCATTGCGGTC", "PBM binding z-score": 0.705}

###

Entries and their measured PBM binding z-score follow.
System: PXR homodimer (NR concentration 270 nM)
measurement_protocol: PBM binding z-score (relative to random genomic background probes); higher = stronger binding; sequences stand for … in GC…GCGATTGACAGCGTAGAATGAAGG
property_measured: PBM binding z-score

{"sequence_record": "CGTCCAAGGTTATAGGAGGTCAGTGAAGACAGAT", "recorded_result": 1.46}
{"sequence_record": "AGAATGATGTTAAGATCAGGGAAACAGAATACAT", "recorded_result": -0.00916}
{"sequence_record": "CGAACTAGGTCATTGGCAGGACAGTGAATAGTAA", "recorded_result": -0.0888}
{"sequence_record": "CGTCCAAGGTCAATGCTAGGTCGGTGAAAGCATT", "recorded_result": 0.759}
{"sequence_record": "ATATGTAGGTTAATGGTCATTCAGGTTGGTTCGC", "recorded_result": 0.787}
{"sequence_record": "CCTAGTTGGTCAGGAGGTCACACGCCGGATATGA", "recorded_result": 1.31}
{"sequence_record": "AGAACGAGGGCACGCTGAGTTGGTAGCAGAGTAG", "recorded_result": -0.377}
{"sequence_record": "TCGAGTAGATTACCAATGGGGCATTCAGCTTTCT", "recorded_result": -0.382}
{"sequence_record": "TCTAGTTGGTCACGGAGGTCACACACGACGGGTA", "recorded_result": 1.8}
{"sequence_record": "GCTTGTAGATCAAGGGTAAGAAAGACTAAGCTAA", "recorded_result": -0.45}
{"sequence_record": "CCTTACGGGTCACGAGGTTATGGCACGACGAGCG", "recorded_result": 0.0957}
{"sequence_record": "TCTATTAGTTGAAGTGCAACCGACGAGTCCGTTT", "recorded_result": 1.24}
{"sequence_record": "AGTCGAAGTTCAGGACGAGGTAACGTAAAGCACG", "recorded_result": 0.0866}
{"sequence_record": "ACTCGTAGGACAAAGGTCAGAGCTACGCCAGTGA", "recorded_result": 0.25}
{"sequence_record": "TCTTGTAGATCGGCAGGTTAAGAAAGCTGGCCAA", "recorded_result": -0.293}
{"sequence_record": "CCTACTGGGCCAAAAAGGTCATTGTTGCCGATAA", "recorded_result": 1.92}
{"sequence_record": "AGTCAAAGTTCACTAAGTAACGTAAGATTCAGCT", "recorded_result": 2.31}
{"sequence_record": "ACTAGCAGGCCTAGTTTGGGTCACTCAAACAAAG", "recorded_result": -0.591}
{"sequence_record": "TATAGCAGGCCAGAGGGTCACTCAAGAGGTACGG", "recorded_result": -0.392}
{"sequence_record": "CAGCCTAGCTCAGGGCCAGTATAGGAGGAACGTT", "recorded_result": -0.337}
{"sequence_record": "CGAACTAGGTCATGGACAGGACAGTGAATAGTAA", "recorded_result": -0.17}
{"sequence_record": "CCTCGGAGCACAGAAGGTCAGAGCTGTCCGCTTT", "recorded_result": 0.017}
{"sequence_record": "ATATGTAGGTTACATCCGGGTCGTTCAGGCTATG", "recorded_result": 0.721}
